- assay_overview: basal S. cerevisiae growth modulation, no modifier, primary screen, OD600, strain BY4716, 24 h, basal condition (AID 1173)
- test_parameters: OD600, 24 h, higher = more signal, called active from +8 up or from −8 down
reported_endpoint: z-score
Give the value as a plain number.

A selection of reference data follows.
INSERT INTO results (compound, reported_endpoint, result) VALUES
  ('C=CCOC(=O)[C@H]1[C@@H]2C(=O)O[C@@H](c3ccccc3)[C@@H](c3ccccc3)N2[C@@H](c2ccc(OCCOC(=O)[C@@H]3C[C@@H]4C(=O)N5CCC[C@H]5C(=O)N4[C@@H]3c3ccc(O)cc3)cc2)[C@]12C(=O)Nc1ccccc12', 'z-score', 0.865),
  ('COC(=O)[C@@]1(Cc2ccc(OC)cc2)[C@H]2c3cc(C(=O)N(C)C)n(Cc4c(OC)[nH]cc(C)c4=O)c3C[C@H]2CN1C(=O)c1ccccc1', 'z-score', 0.87),
  ('CCCCC=C[C@@H](NC(=O)c1ccc(C(=O)OC)cc1)c1ccccc1', 'z-score', 0.399),
  ('COCCOC(=O)N1C(=O)[C@@]2(c3cc(C#CCNC(N)=O)ccc31)[C@H](c1ccccc1OCCO)N1[C@H](c3ccccc3)[C@H](c3ccccc3)OC(=O)[C@H]1[C@@H]2C(N)=O', 'z-score', 1.91);

Form: compound = "CC(C)C[C@@H]1NC(=O)[C@@H]2C[C@H](C(=O)NCCCCCC[N+](C)(C)C)[C@H](c3ccc(O)cc3)N2C1=O" ; z-score = 0.54

Entry Cc1cc(C)c(C(O)C2C=CC3C(=O)N(C)C(=O)C3N2Nc2ccccc2)c(C)c1 (centres undefined) , z-score reported as -0.0657

z-score measured on O=C1OCCC/C=C\[C@H]2OC34C=CCN(Cn5nnc6ccccc65)C(=O)[C@H]3N(CCCCCO)C(=O)[C@@H]4C12 (some centres undefined) = -0.419

// "COCCOC(=O)N1C(=O)[C@@]2(c3cc(C#CC4=CCCCC4)ccc31)[C@H](C(=O)NC[C@H](O)c1ccccc1)[C@H]1C(=O)O[C@H](c3ccccc3)[C@H](c3ccccc3)N1[C@@H]2c1ccc(O)cc1" : z-score value = -0.571

In plain terms, CN1C(=O)C2C=CC(C(O)c3ccccn3)N(Nc3ccccc3)C2C1=O (centres undefined) has a documented z-score of 0.727

====

- assay_overview: binders of probe aFST on microarray, primary screen, stem cell growth factor project, biochemical, small-molecule microarray, fluorescence 635/667 (AID 1086);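 further: score merges 667 nm fluorescence with signal-to-noise of each printed compound spot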
- test_parameters: higher = more signal
Decision: composite z-score >= 0.6 yields criterion met, all other cases yield criterion not met.

INSERT INTO results (compound, class_name) VALUES
  ('CCCCCCCCCCC(O)C1C=CC2C(=O)N(Cc3ccccc3)C(=O)C2N1n1cnnc1 (configuration not stated)', 'criterion met');

Say whether "NCCCCCCNC(=O)[C@H]1C[C@H]2C(=O)NCC(=O)N2[C@H]1c1cccc(OCCO)c1" shows composite z-score of 0.6 or more.
criterion not met

Hello, I need to know if "COc1ccc([Si](C)(C)[C@H]2[C@H](CCn3cc([C@H](O)c4ccccc4)nn3)O[C@@]3(C(=O)N(Cc4cccc(N5CCC5=O)c4)c4ccccc43)[C@@H]2C)cc1" has measured composite z-score not below 0.6. Thanks!
criterion not met
